Biological target: human Fc (human)
Assay: ELISA; negative control
# if measured optical density < 0.2 OD: rule met  # else: rule not met

Is optical density strictly under 0.2 OD for the entry 373_E03 (antibody, V domains shown) VH: EVQLLESGGGLVQPGGSLRLSCAASGFTFDSYGMNWVRQAPGKGLEWVSNINYNGGYTGYADSVKGRFTISRDNSKNTLYLQMNSLRAEDTAVYYCARSATWHDTALDYWGQGTLVTVSS VL: DIQMTQSPSSLSASVGDRVTITCRASQSILSYVNWYQQKPGKAPKLVIYAATSRASGVPSRFSGSGSGTDFTLTISSLQPEDFATYYCQQSYDLPLTFGGGTKVEIK ?
rule met

Is optical density strictly under 0.2 OD for the entry 369_A05 (antibody, V domains shown) VH: EVQLLESGGGLVQPGGSLRLSCAASGFTFSSYSMNWVRQAPGKGLEWVAGINYNGGYTGYADSVKGRFTISRDNSKNTLYLQMNSLRAEDTAVYYCARSATWHDTHLDYWGQGTLVTVSS VL: DIQMTQSPSSLSASVGDRVTITCRASQSILTYVNWYQQKPGKAPKLVIYAATSRASGVPSRFSGSGSGTDFTLTISSLQPEDFATYYCQQSYESPLTFGGGTKVEIK ?
rule not met

Is optical density strictly under 0.2 OD for the entry 365_G12 (antibody, V domains shown) VH: EVQLLESGGGLVQPGGSLRLSCAASGFTFSSYGMNWVRQAPGKGLEWVAGINYNSGYTSYADSVKGRFTISRDNSKNTLYLQMNSLRAEDTAVYYCARSATWHDTALDYWGQGTLVTVSS VL: DIQMTQSPSSLSASVGDRVTITCRASQSILSYVNWYQQKPGKAPKLVIYAATSRASGVPSRFSGSGSGTDFTLTISSLQPEDFATYYCQQSYSNPLTFGGGTKVEIK ?
rule not met
